assay: Intrinsic clearance in rat liver microsomes; format: ADME, Microsome; details: read-out: CLH
outcome_measure: microsomal CLint

Query :: Please give the documented microsomal CLint of Cc1cc2ncnn2cc1Nc1ncc2c(n1)N(C1CCOCC1)CC(=O)N2C
Result :: < 9.6 µL/min/mg

* * *

assay: Plasma protein binding in human assessed as free fraction; type: ADME, cell-free
fraction unbound reference
Could you keep your reply to the number by itself?

Cc1cc2ncnn2cc1Nc1ncc2c(n1)N(C1CCOCC1)CC(=O)N2C	0.859

Query :: Please give the documented fraction unbound of Cc1cc2ncnn2cc1Nc1ncc2c(n1)n(C1CCOCC1)c(=O)n2C [AZD-7648]
Result :: 0.834
